TEST_SUMMARY: Inhibition of Helicobacter pylori alpha carbonic anhydrase preincubated for 15 mins by stopped-flow CO2 hydrase assay
MEASUREMENT_NAME: Ki (µM)
Numeric only. Scale: µM

[[record]]
compound = "O=NO"
measurement_name = "Ki"
observed = 930

[[record]]
compound = "O=P(O)(O)OP(=O)(O)O"
measurement_name = "Ki"
observed = 660

[[record]]
compound = "Br [BROMIDE]"
measurement_name = "Ki"
observed = 2410

[[record]]
compound = "[O-][Cl+3]([O-])([O-])O [PERCHLORATE]"
measurement_name = "Ki"
observed = 10100


The compound listed as NS(=O)(=O)O [SULFAMATE] has a reported Ki of 80

compound O=S(=O)(O)NS(=O)(=O)O , Ki observed: 540

Kindly note the recorded Ki for CCN(CC)C(=S)S , which is 5

Recorded result, O=S(O)O , Ki: 990

In plain terms, Cl [HYDROCHLORIC ACID] has a documented Ki of 2700

----------
TEST_SUMMARY: Inhibition of Vibrio cholerae carbonic anhydrase beta preincubated for 15 mins by stopped-flow CO2 hydrase assay
The molecules listed here are annotated with their Ki.
// return numeric value only (unit: mM, not printed)

[[record]]
molecule = "[N-]=[N+]=[N-]"
measurement_name = "Ki"
observed = 20.5

[[record]]
molecule = "O=S(=O)(O)F"
measurement_name = "Ki"
observed = 8.9

[[record]]
molecule = "NS(=O)(=O)O [SULFAMATE]"
measurement_name = "Ki"
observed = 0.086

[[record]]
molecule = "O=[N+]([O-])O"
measurement_name = "Ki"
observed = 8.4

[[record]]
molecule = "OB(O)c1ccccc1 [PHENYLBORONIC ACID]"
measurement_name = "Ki"
observed = 0.085


The molecule O=S(=O)(O)OOS(=O)(=O)O showed Ki equal to 3.4

In plain terms, F [FLUORIDE ION] has a documented Ki of 8.7

Entry S [HYDROGEN SULFIDE] , Ki reported as 21.3

Reported Ki ( NS(N)(=O)=O [SULFAMIDE] ) = 0.054

Given item O=NO [NITROUS ACID] , the value recorded as its Ki is 9.1

Reported Ki ( N#CO [CYANATE] ) = 7.1

response.value for O=[As](O)(O)c1ccccc1 [PHENYLARSONIC ACID] (field: Ki) = 0.079

Just so you know, measured Ki for Cl [HYDROCHLORIC ACID] came out at 8.1

Reported Ki for N#CS [THIOCYANIC ACID] was 9.5

----------
TEST_SUMMARY: Inhibition of Helicobacter pylori alpha carbonic anhydrase preincubated for 15 mins by stopped-flow CO2 hydrase assay
MEASUREMENT_NAME: Ki (µM)
Answer with a number only, understood to be in µM.

[[record]]
molecule = "S=C(S)S"
measurement_name = "Ki"
observed = 380

[[record]]
molecule = "N#CO [CYANATE]"
measurement_name = "Ki"
observed = 600

[[record]]
molecule = "O=S(=O)(O)OOS(=O)(=O)O"
measurement_name = "Ki"
observed = 920

[[record]]
molecule = "OB(O)c1ccccc1"
measurement_name = "Ki"
observed = 97

[[record]]
molecule = "NS(N)(=O)=O [SULFAMIDE]"
measurement_name = "Ki"
observed = 73


Could you now consider this next molecule?
Quick note, Ki for [N-]=[N+]=[N-] landed at 830

----------
TEST_SUMMARY: Inhibition of Helicobacter pylori alpha carbonic anhydrase preincubated for 15 mins by stopped-flow CO2 hydrase assay
MEASUREMENT_NAME: pKi
Scale: negative log10 of molar concentration, which is what pKi denotes.

Recorded results for 4 compounds are shown here.
[[record]]
compound = "F [FLUORIDE ION]"
observed = 2.39

[[record]]
compound = "O=[Se](=O)(O)O"
observed = 3.14

[[record]]
compound = "O=S(=O)(O)O"
observed = 3.09

[[record]]
compound = "O=[Te](=O)(O)O"
observed = 3.47


# compound O=[N+]([O-])O ; its pKi = 3.09

The recorded pKi for N#C[SeH] is 3.14

----------
TEST_SUMMARY: Inhibition of Helicobacter pylori alpha carbonic anhydrase preincubated for 15 mins by stopped-flow CO2 hydrase assay
Measured pKi accompanies every entry in the list below.
# pKi: negative log10 of molar concentration; output just the value

Example results:
[[record]]
compound = "I [IODIDE]"
observed = 2.22

[[record]]
compound = "N#CS"
observed = 2.39


Now for a further compound.
Per the records, this compound ( O=[As](O)(O)c1ccccc1 ) has pKi equal to 3.36
